Record form. Attribute: self-cleavage kobs at 160 uM GlcN6P. Fill in for each entry.
B1: glmS ribozyme (parent)
chain: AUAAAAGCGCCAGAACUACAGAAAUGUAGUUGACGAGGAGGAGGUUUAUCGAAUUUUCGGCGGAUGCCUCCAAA

Variants of: B1
Assay: self-cleavage kobs at 160 uM GlcN6P; higher = faster cleavage; RNA array
Conditions: with glucosamine-6-phosphate
Variants at the floor of the assay were thinned out.

q: Suppose we examine the variant G13U A15G ; what self-cleavage kobs at 160 uM GlcN6P value has been reported?
a: 0.000116 s⁻¹

q: And what about the variant G9C A36C ?
a: < 1e-05 s⁻¹

q: And what about the variant C10U U54A ?
a: < 1e-05 s⁻¹

q: And what about the variant `C70A` ?
a: 0.000416 s⁻¹

q: And what about the variant A6G G13C ?
a: < 1e-05 s⁻¹

q: And what about the variant A6G A33U C58G C67U C71A ?
a: 9.68e-05 s⁻¹

q: And what about the variant A36U G51C ?
a: < 1e-05 s⁻¹

q: And what about the variant G13C G29U G37C C71U ?
a: < 1e-05 s⁻¹

q: And what about the variant C10G C11U C16A A33U C34U C50G C70U ?
a: 4.84e-05 s⁻¹

q: And what about the variant G7U G59A ?
a: < 1e-05 s⁻¹

q: And what about the variant C11U C67G ?
a: 4.28e-05 s⁻¹

q: And what about the variant C58A C70U ?
a: 3.94e-05 s⁻¹

q: And what about the variant G7U A53C ?
a: < 1e-05 s⁻¹

q: And what about the variant A42C A53G ?
a: < 1e-05 s⁻¹

q: And what about the variant A48C C50A ?
a: < 1e-05 s⁻¹

q: And what about the variant G9C U45A U47C C68G ?
a: < 1e-05 s⁻¹

q: And what about the variant G51C G59A ?
a: < 1e-05 s⁻¹
